target: BCL6 BTB domain (Homo sapiens (Human), UniProt P41182)
Consider the cut-off 20 nM. If the recorded Kd is strictly smaller, the label is True; if not, the label is False.

- C[C@@H]1CN(c2cc(NC(=O)Cn3cc(-c4cc(Cl)c(O)c(C(N)=O)c4)c4c(=O)n(C)cnc43)c(Cl)cn2)C[C@H](C)O1: False
- Cn1cnc2c(c(-c3cc(Cl)c(O)c(C(N)=O)c3)cn2CC(=O)Nc2cc(F)nc(F)c2F)c1=O: False
- CC[C@H]1CN(c2cc(NC(=O)Cn3cc(-c4cc(Cl)c(O)c(C(N)=O)c4)c4c(=O)n(C)cnc43)c(Cl)cn2)CCO1: False
- CN1CCOC2(CCN(c3cc(NC(=O)Cn4cc(-c5cc(Cl)c(O)c(C(N)=O)c5)c5c(=O)n(C)cnc54)c(Cl)cn3)C2)C1 (stereo not drawn): True
- Cc1nc2c(c(-c3cc(C(N)=O)c(O)c(F)c3F)cn2CC(=O)Nc2cc(N3CCN(C4COC4)C[C@@H]3C)nc(F)c2Cl)c(=O)n1C: True
- C[C@@H](CO)Nc1cc(NC(=O)Cn2cc(-c3cc(Cl)c(O)c(C(N)=O)c3)c3c(=O)n(C)cnc32)c(Cl)cn1: False
- C[C@H]1CN(CC2CC2)CCN1c1cc(NC(=O)Cn2cc(-c3cc(F)c(O)c(C(N)=O)c3)c3c(=O)n(C)cnc32)c(Cl)c(F)n1: True
- Cn1c(CCc2ccc(F)cc2)nc2c(c(-c3cc(Cl)c(O)c(C(N)=O)c3)cn2CC(=O)Nc2cc(N3CCOCC3)ncc2Cl)c1=O: False

Field: next compound
Qu. Below 20 nM on Kd? Entry C[C@H]1CN(CC2CC2)CCN1c1cc(NC(=O)Cn2cc(-c3cc(Cl)c(O)c(C(N)=O)c3)c3c(=O)n(C)c(C(F)(F)F)nc32)c(Cl)cn1
Ans. False

---

I'd be grateful if you could share measured Kd for these entries.
biological target: BCL6 BTB domain (Homo sapiens (Human), UniProt P41182)
Provide a numeric answer, followed by its unit.

Known results for compounds:
* Cn1cnc2c(c(-c3cc(C(N)=O)c(O)c(F)c3F)cn2CC(=O)Nc2cc(N3CCOCC3)ncc2Cl)c1=O | 62.1 nM
* CC(C)N1CCN(c2cc(NC(=O)Cn3cc(-c4cc(Cl)c(O)c(C(N)=O)c4)c4c(=O)n(C)c(C(F)(F)F)nc43)c(Cl)cn2)[C@@H](C)C1 | 138 nM

// next item, Kd requested
Qu. Identify measured Kd associated with CN1C(C)(C)CN(c2cc(NC(=O)Cn3cc(-c4cc(F)c(O)c(C(N)=O)c4)c4c(=O)n(C)cnc43)c(Cl)cn2)CC1(C)C
Ans. 14.1 nM

---

The compounds below have reported Kd for BCL6 BTB domain (Homo sapiens (Human), UniProt P41182).
One number for each entry, in nM.

* COCCN1CCN(c2cc(NC(=O)Cn3cc(-c4cc(C(N)=O)c(O)c(F)c4F)c4c(=O)n(C)cnc43)c(Cl)cn2)[C@@H](C)C1 | 17.9
* Cc1nc2c(c(-c3cc(C(N)=O)c(O)c4c3OCCO4)cn2CC(=O)Nc2cc(N3CCOC[C@@H]3C)ncc2Cl)c(=O)n1C | 146

Qu. Report Kd on BCL6 BTB domain (Homo sapiens (Human), UniProt P41182) for this entry: Cc1nc2c(c(-c3cc(Cl)c(O)c(C(N)=O)c3)cn2CC(=O)Nc2cc(N3CCOC[C@@H]3C)nc(F)c2Cl)c(=O)n1C
Ans. 14.2

---

target: BCL6 BTB domain (Homo sapiens (Human), UniProt P41182)
I'd be grateful if you could share measured pKd for these entries.
One number for each entry, as −log10 of the molar value.

Known results for compounds:
• CO[C@H]1CC(c2cc(NC(=O)Cn3cc(-c4cc(Cl)c(O)c(C(N)=O)c4)c4c(=O)n(C)cnc43)c(Cl)c(F)n2)C[C@H]1F (stereo partly drawn) [Compound I-439] = 7.48
• Cn1cnc2c(c(-c3cc(Cl)c(O)c(C(N)=O)c3)cn2CC(=O)Nc2cc(N3C4CCC3CN(CC(F)(F)F)C4)ncc2Cl)c1=O [Compound I-466] = 6.28
• CN1CCOC2(CCN(c3cc(NC(=O)Cn4cc(-c5cc(C(N)=O)c(O)cc5F)c5c(=O)n(C)cnc54)c(Cl)cn3)C2)C1 (stereo not drawn) [Compound I-184] = 7.43
• Cn1cnc2c(c(-c3cc(F)c(O)c(C(N)=O)c3)cn2CC(=O)Nc2cc(N3CC4COCC4C3)ncc2Cl)c1=O (stereo not drawn) [Compound I-275] = 8.32
• Cn1cnc2c(c(-c3cc(Cl)c(O)c(C(N)=O)c3)cn2CC(=O)Nc2cc(N3CCCC4(CCOCC4)C3)ncc2Cl)c1=O [Compound I-156] = 7.30

Qu. Identify measured pKd associated with Cn1cnc2c(c(-c3cc(Cl)c(O)c(C(N)=O)c3)cn2CC(=O)Nc2ccc([N+](=O)[O-])cc2Cl)c1=O [Compound I-385]
Ans. 7.42

---

The molecules below have reported Kd for BCL6 BTB domain (Homo sapiens (Human), UniProt P41182).
Provide a numeric answer, followed by its unit.

Known results for molecules:
- Cc1nc2c(c(-c3cc(C(N)=O)c(O)c(F)c3F)cn2CC(=O)Nc2cc(N3CCN(C)C[C@@H]3C(C)C)ncc2Cl)c(=O)n1C: 0.118 µM
- C[C@H]1COCCN1c1cc(NC(=O)Cn2cc(-c3cc(F)c(O)c(C(N)=O)c3)c3c(=O)n(CC#Cc4cnn(C)c4)cnc32)c(Cl)cn1: 0.0131 µM

// next item, Kd requested
Qu. Identify measured Kd associated with C[C@H]1CN(C2COC2)CCN1c1cc(NC(=O)Cn2cc(-c3cc(F)c(O)c(C(N)=O)c3)c3c(=O)n(C)cnc32)c(Cl)c(F)n1
Ans. 0.0025 µM

---

The molecules below have reported Kd for BCL6 BTB domain (Homo sapiens (Human)).
One number for each entry, in nM.

* Cc1ccc(CN2CCN(c3cc(NC(=O)Cn4cc(-c5cc(C(N)=O)c(O)c(F)c5F)c5c(=O)n(C)cnc54)c(Cl)cn3)[C@@H](C)C2)s1 | 574
* Cn1cnc2c(c(-c3cc(C(N)=O)c(O)c(F)c3F)cn2CC(=O)Nc2cc(N3CC4CCOC4C3)ncc2Cl)c1=O (stereo not drawn) | 22.4
* C[C@H]1CN(C2CCC2)CCN1c1cc(NC(=O)Cn2cc(-c3cc(Cl)c(O)c(C(N)=O)c3)c3c(=O)n(C)cnc32)c(Cl)cn1 | 22.7
* CN1CC2CCC(C1)N2c1cc(NC(=O)Cn2cc(-c3cc(Cl)c(O)c(C(N)=O)c3)c3c(=O)n(C)c(C(F)(F)F)nc32)c(Cl)cn1 | 226
* Cn1cnc2c(c(-c3cc(C(N)=O)c(O)c(F)c3F)cn2CC(=O)Nc2cc(N3CCC3)nc(F)c2Cl)c1=O | 71.6

Field: Kd. Fill in for each record below.
1. C[C@H]1CN(Cc2ccco2)CCN1c1cc(NC(=O)Cn2cc(-c3cc(C(N)=O)c(O)c(F)c3F)c3c(=O)n(C)cnc32)c(Cl)cn1
2. CN1CCC2CN(c3cc(NC(=O)Cn4cc(-c5cc(F)c(O)c(C(N)=O)c5)c5c(=O)n(C)cnc54)c(Cl)cn3)CC21 (stereo not drawn)
3. Cc1nc2c(c(-c3cc(Cl)c(O)c(C(N)=O)c3)cn2CC(=O)Nc2cc(N3CC(C)(C)N(C)C(C)(C)C3)ncc2Cl)c(=O)n1C
4. CN1C2CCC1CN(c1cc(NC(=O)Cn3cc(-c4cc(C(N)=O)c(O)c(F)c4F)c4c(=O)n(C)cnc43)c(Cl)cn1)C2
5. CCN1CCN(c2cc(NC(=O)Cn3cc(-c4cc(F)c(O)c(C(N)=O)c4)c4c(=O)n(C)cnc43)c(Cl)cn2)[C@@H](C)C1
6. Cn1cc2cc(NC(=O)Cn3cc(-c4cc(Cl)c(O)c(C(N)=O)c4)c4c(=O)n(C)cnc43)c(Cl)cc2n1
7. Cn1cnc2c(c(-c3cc(C(N)=O)c(O)c(Cl)c3F)cn2CC(=O)Nc2cc(N3CCOCC3)ncc2Cl)c1=O

Ans.
1: 32.6; 2: 33.1; 3: 11.8; 4: 102; 5: 6.18; 6: 86.3; 7: 206

---

tested on: Karpas422 cells; assay: Tumor cell growth inhibition assay; format: cell-based; details: read-out: Tumor Growth Inhibition in Karpas-422 (IC50); Karpas422 cells, six days, ATPlite
pIC50: −log10 of the molar value.
Quick rule for you: pIC50 at 6 or higher means yes (1), lower means no (0).

Field: example entries. Status: answers known.
* Cn1cnc2c(c(-c3cc(Cl)c(O)c(C(N)=O)c3)cn2CC(=O)Nc2cc(N3CCOC(C(F)(F)F)C3)ncc2Cl)c1=O (stereo not shown) [Compound I-69] | yes (1)
* C[C@H]1COCCN1c1cc(NC(=O)Cn2cc(-c3cc(Cl)c(O)c(C(N)=O)c3)c3c(=O)n(C)cnc32)c(Cl)cn1 [Compound I-239] | yes (1)

Field: next molecule
Qu. Could you tell me if the measured pIC50 of Cn1cnc2c(c(-c3cc(Cl)c(O)c(C(N)=O)c3)cn2CC(=O)Nc2cc(N3CCOC(C(F)(F)F)C3)ncc2Cl)c1=O (stereo not shown) [Compound I-258] reaches 6 or more?
Ans. yes (1)

Hey, just so you know, these numbers are from patent US11518764B2.
